system: MDA-MB-468; assay: phospho-S6 immunofluorescence (DAPI-normalised), per-plate z-score; higher = higher phospho-S6 signal (less pathway suppression); conditions: co-treatment: lapatinib 1 uM; 24 h
Where a name gives a salt, the structure may show the parent alone.
readout: phospho-S6 immunofluorescence (z-score)

Reference set (6 entries):
- molecule: "C[C@H](NC(=O)CNC(=O)c1cccc(Cl)c1)c1ccccc1 (compound 10 µM)"
  phospho-S6 immunofluorescence (z-score): 0.45
- molecule: "COc1cc2c(NC3CCN(C(C)C)CC3)nc(N3CCC(F)(F)CC3)nc2cc1OCCCN1CCCC1 (compound 10 µM)"
  phospho-S6 immunofluorescence (z-score): 3.34
- molecule: "CN1CCC(=C2c3ccccc3CCc3sccc32)CC1 [Pizotifen] (compound 10 µM)"
  phospho-S6 immunofluorescence (z-score): -1.87
- molecule: "Clc1ccc(Cn2c(CN3CCCC3)nc3ccccc32)cc1 [Clemizole (hydrochloride)] (compound 10 µM)"
  phospho-S6 immunofluorescence (z-score): 0.26
- molecule: "CC(CCc1ccccc1)NCC(O)c1ccc(O)c(C(N)=O)c1 (configuration not stated) [Labetalol (hydrochloride)] (compound 10 µM)"
  phospho-S6 immunofluorescence (z-score): -0.16
- molecule: "O=C(c1ccc(OCCCc2c[nH]cn2)cc1)C1CC1 [Ciproxifan (maleate)] (compound 10 µM)"
  phospho-S6 immunofluorescence (z-score): -0.62

Go through the list and state phospho-S6 immunofluorescence (z-score) for each entry.
1. Cn1c(=O)c2c(ncn2CC(O)CO)n(C)c1=O (configuration not stated) [Diphylline] (compound 10 µM)
2. COc1ccccc1OCCNCC(O)COc1cccc2[nH]c3ccccc3c12 (configuration not stated) [Carvedilol] (compound 10 µM)
3. C(=C\c1ccccc1)/CN1CCN(C(c2ccccc2)c2ccccc2)CC1 [Cinnarizine] (compound 10 µM)
4. CN1CC2c3ccccc3Oc3ccc(Cl)cc3C2C1 (configuration not stated) [Asenapine (maleate)] (compound 10 µM)
5. CN(C)CCC(c1ccccc1)c1ccccn1 (configuration not stated) [Pheniramine (Maleate)] (compound 10 µM)
6. CN1CCN(c2cc(-c3ccccc3)nc(N)n2)CC1 (compound 10 µM)
7. CC1(C)O[C@@H]2C[C@H]3[C@@H]4CCC5=CC(=O)C=C[C@]5(C)[C@H]4[C@@H](O)C[C@]3(C)[C@]2(C(=O)CO)O1 [Desonide] (compound 10 µM)
8. CCN(CC)CCCC(C)Nc1nc(C)cc(Nc2ccc3nc(C)cc(N)c3c2)n1 (configuration not stated) (compound 10 µM)

1: -0.14; 2: -4.63; 3: 0.22; 4: -1.57; 5: 0.78; 6: 0.06; 7: 0.54; 8: 1.82

----------
tested on: MDA-MB-468; assay: phospho-S6 immunofluorescence (DAPI-normalised), per-plate z-score; higher = higher phospho-S6 signal (less pathway suppression); conditions: co-treatment: vehicle; 24 h
Counter-ions that a name gives are not always drawn.
readout: phospho-S6 immunofluorescence (z-score)
Answers are plain numbers.

Sample answers from the record:
- molecule: "OCCN1CCN(CCCN2c3ccccc3Sc3ccc(Cl)cc32)CC1 [Perphenazine] (compound 10 µM)"
  phospho-S6 immunofluorescence (z-score): 0.82
- molecule: "Cc1cccc(C#Cc2ccccc2)n1 [MPEP (Hydrochloride)] (compound 10 µM)"
  phospho-S6 immunofluorescence (z-score): -0.14

Report phospho-S6 immunofluorescence (z-score) for every entry below.
1. Cn1c(=O)c2c(ncn2CC(=O)O)n(C)c1=O [Acefylline] (compound 10 µM)
2. COc1cc(C(=O)NS(=O)(=O)c2ccccc2C)ccc1Cc1cn(C)c2ccc(NC(=O)OC3CCCC3)cc12 [Zafirlukast] (compound 10 µM)
3. Cc1cncc(CN2CCC(=C3c4ccc(Cl)cc4CCc4cccnc43)CC2)c1 [Rupatadine (Fumarate)] (compound 10 µM)
4. c1ccc2c(c1)N=C(N1CCNCC1)c1ccccc1N2 [DREADD agonist 21] (compound 10 µM)

[-0.98, 0.19, -1.45, -0.53]
